# measurement.setup: human, urine, iv, CLr (renal clearance), Treatment C, rifampin IV; mean±SD
measured.parameter: CL renal (mL/day/kg)
The answer is to be given in mL/day/kg; state only the numeric part.

Recorded CL renal for COc1ccc(Cl)cc1C(=O)NCCc1ccc(S(=O)(=O)NC(=O)NC2CCCCC2)cc1 [glyburide] , please?
0.384

###

# Format: in vivo, human
# measurement.setup: human, plasma, po, 1.25 mg
measured.parameter: Tmax
Give me the value, and tack the unit on after it.

For the compound shown here, COc1ccc(Cl)cc1C(=O)NCCc1ccc(S(=O)(=O)NC(=O)NC2CCCCC2)cc1 [glyburide] , give the reported Tmax.
3 h

###

# Type: in vivo, human
# measurement.setup: human, plasma, po, 1.25 mg, MRT, Treatment A: 1.25 mg oral glyburide alone (control); mean±SD, n=9
measured.parameter: MRT (h)
Express the result in h but write the number alone.

I have this molecule here, COc1ccc(Cl)cc1C(=O)NCCc1ccc(S(=O)(=O)NC(=O)NC2CCCCC2)cc1 [glyburide] , and I need its recorded MRT.
4.5

###

# Assay type: in vivo, human
# measurement.setup: human, plasma, po, 1.25 mg, AUC0-∞, Treatment A: 1.25 mg oral glyburide alone (control); plasma; mean±SD, n=9
measured.parameter: AUC(0-inf) (ng·h/mL)
Respond with the bare value in ng·h/mL.

Form field: reported AUC(0-inf) of COc1ccc(Cl)cc1C(=O)NCCc1ccc(S(=O)(=O)NC(=O)NC2CCCCC2)cc1 [glyburide]
1890
